# protocolNotes: Human HepG2 cell viability assay in 384 well format
# Assay type: toxicity, cell-based
# Parameters: dose 125 nL, time 70.5 hour; concentration not given beside the values
# runParameters: HepG2 cells, read-out: Inhibition
attributeMeasured: cytotoxicity at 70.5 h (%)
Expressed in %, but write only the number.

# compound, attributeMeasured, recordedResult
rows = [
    ("CN1CCCC(NC(=O)c2ccc(C(=O)c3cc[nH]c3)cc2)C1 (centres undefined)", "cytotoxicity at 70.5 h", -16.9),
    ("Cc1noc(C2CCC3(CCN(C(=O)C4CCOCC4)CC3)O2)n1 (centres undefined)", "cytotoxicity at 70.5 h", 2.64),
    ("CNc1oc(-c2ccc(OC)c(S(=O)(=O)N3CCCCC3)c2)nc1C#N", "cytotoxicity at 70.5 h", -18),
    ("COc1ccc(CN2CCn3cc(Cn4cccn4)nc3C2)cc1", "cytotoxicity at 70.5 h", 3.13),
    ("Cc1nc(C)c(C(=O)OCCNc2ncccc2C#N)s1", "cytotoxicity at 70.5 h", -11.1),
    ("O[C@@H]1C[C@@H](c2nc(-c3cccnc3)no2)N(C2CCOCC2)C1", "cytotoxicity at 70.5 h", 16.4),
    ("Cc1nnc(C(C)NCC2(c3c(F)cccc3F)CCCC2)o1 (centres undefined)", "cytotoxicity at 70.5 h", -2.47),
    ("CC1N(CC2CC2)C(=O)COC12CCN(C(=O)c1ccncc1)CC2 (centres undefined)", "cytotoxicity at 70.5 h", -1.87),
    ("Cc1cccc(C2(O)CCN(C(=O)c3ccccn3)CC2)c1C", "cytotoxicity at 70.5 h", 1.09),
    ("Cc1ccsc1CN1CCc2nc3ccsc3c(=O)n2CC1", "cytotoxicity at 70.5 h", -4.51),
]

Short answer for CCCS(=O)(=O)c1ncc(CN2CCC(C)CC2)n1CC1CCCO1 (centres undefined) : cytotoxicity at 70.5 h was -2.16

Short answer for CC1CN(CC(=O)Nc2cccnc2)CCN1c1nccs1 (centres undefined) : cytotoxicity at 70.5 h was -12.4

Short answer for Cc1nn(CCC#N)c(C)c1[C@@H]1C=C[C@@H](NCc2ccc(F)cc2)C1 : cytotoxicity at 70.5 h was -0.333

Short answer for CC(C)C(C(=O)N1CCCN(Cc2cnn(C)c2)CC1)n1cncn1 (centres undefined) : cytotoxicity at 70.5 h was -7.59

Short answer for CC(C)c1cc(N[C@@H](CO)C(N)=O)n2nccc2n1 : cytotoxicity at 70.5 h was 31.2

Short answer for COCCNC(=O)Cn1cc(NC(=O)c2cc(Cl)c(Cl)n2C)cn1 : cytotoxicity at 70.5 h was 0.862

Short answer for CC(C)c1nc(C2CCCN(C(=O)c3ccc4c(c3)OCO4)C2)no1 (centres undefined) : cytotoxicity at 70.5 h was 18.1

Short answer for Cc1csc(CNC(=O)NCC(O)c2cccc(Cl)c2)n1 (centres undefined) : cytotoxicity at 70.5 h was -11

Short answer for CC1CCN(C(=O)CSCc2noc(C(C)C)n2)CC1 : cytotoxicity at 70.5 h was -4.52

Short answer for O=C(C1CCCCC1)N1CCCC([C@@H]2C[C@H](C(F)F)n3ncnc3N2)C1 (some centres undefined) : cytotoxicity at 70.5 h was -5.82

Short answer for COCC(=O)N1CCC(c2cc(C(F)(F)F)c3c(C)noc3n2)CC1 : cytotoxicity at 70.5 h was 12.4

Short answer for CC(=O)N(C)CC(=O)Nc1cnc(-n2ccnc2)nc1 : cytotoxicity at 70.5 h was 0.242

Short answer for CSc1ncnc(NCc2cccs2)c1C#N : cytotoxicity at 70.5 h was -10.7

Short answer for CC(=O)Nc1cccc(CN2CCN(C3=NCC(C)(C)S3)CC2)c1 : cytotoxicity at 70.5 h was -10.7

###

# protocolNotes: Human HepG2 cell viability assay in 384 well format
# Type: toxicity, cell-based
# Set-up: dose 125 nL, time 70.5 hour; concentration not given beside the values
# runParameters: HepG2 cells, read-out: Inhibition
Known cytotoxicity at 70.5 h of a selection of compounds
Expressed in %, but write only the number.

Short answer for COC(=O)c1c(C(F)(F)F)cnc(OC)c1Cl : cytotoxicity at 70.5 h was -11.7

Short answer for Cc1nnc2n1CCN(C(C(=O)NC(C)C)c1ccccc1)C2 (configuration not stated) : cytotoxicity at 70.5 h was 19.5

Short answer for CN(C)c1ncccc1CNCc1cccc(O)c1 : cytotoxicity at 70.5 h was -12.2

Short answer for Cn1ncc2c(=O)[nH]c(CN(Cc3cccc(F)c3)C3CC3)nc21 : cytotoxicity at 70.5 h was 1.56

Short answer for O=C(NCc1ccccc1)C1CN(c2ccccn2)CCO1 (configuration not stated) : cytotoxicity at 70.5 h was -15.5

Short answer for Cc1ccccc1-c1cncc(C2CCN(C(C)C)CC2)n1 : cytotoxicity at 70.5 h was -22.4

Short answer for COCCN(CC1CCCO1)C(=O)CCNC(=O)c1ccccc1F (configuration not stated) : cytotoxicity at 70.5 h was -13.6

Short answer for Cn1c(CS(=O)(=O)Cc2cccc(Cl)c2)cc(=O)n(C)c1=O : cytotoxicity at 70.5 h was -4.54

Short answer for O=C(c1nnn(-c2ccc(F)cc2)n1)N(CCO)Cc1ccccc1 : cytotoxicity at 70.5 h was -1.48

Short answer for CC(CN1CC[C@@H]2CCCC[C@@H]2C1)n1cnc2ccccc21 (some centres not stated) : cytotoxicity at 70.5 h was 21.4

Short answer for CC(C)c1cc(CN(C)C(=O)CN2CCCCC2=O)no1 : cytotoxicity at 70.5 h was 13.9

Short answer for N#Cc1ccc(S(=O)(=O)Nc2ccccc2C#N)cn1 : cytotoxicity at 70.5 h was -6

###

# protocolNotes: Human HepG2 cell viability assay in 384 well format
# Format: toxicity, cell-based
# Set-up: dose 125 nL, time 70.5 hour; concentration not given beside the values
# runParameters: HepG2 cells, read-out: Inhibition
attributeMeasured: cytotoxicity at 70.5 h (%)
Expressed in %, but write only the number.

# molecule, unitOfMeasurement, cytotoxicity at 70.5 h
measured = [
    ("COC(=O)c1ccc(CNC2CC(=O)N(Cc3cccc(F)c3)C2)cc1 (configuration not stated)", "%", 0.023),
    ("NC(=O)C1CCN(C(=O)c2cccn2Cc2cccs2)C1 (configuration not stated)", "%", -0.693),
    ("COCCC(=O)N1C[C@@H](c2cccc(OC)c2)[C@@]2(CCCCC(=O)N2)C1", "%", -14.8),
    ("Cc1c(NCCOCC(F)(F)F)cccc1C(=O)N1CCCC1", "%", -10.8),
    ("COc1ncccc1CNC(=O)Nc1ccc(N(C)C)nc1", "%", -12.5),
]

Short answer for Cn1cc(C(O)CNC(=O)Nc2cc(F)ccc2-n2cccn2)cn1 (configuration not stated) : cytotoxicity at 70.5 h was 5.74

Short answer for Cc1nc(N2CCCC2)ncc1-c1cc(O)n2ncnc2n1 : cytotoxicity at 70.5 h was -2.97

Short answer for COc1ccc(CN2CCC(C(N)=O)CC2)cc1SC(F)(F)F : cytotoxicity at 70.5 h was 5.97

Short answer for CN(C)c1ncccc1NC(=O)COCC1CC1 : cytotoxicity at 70.5 h was -9.25

Short answer for O=C(CCCNc1ncccn1)Nc1ccc(Cn2cncn2)cc1 : cytotoxicity at 70.5 h was -10.8

Short answer for COCc1nc(C(=O)NS(=O)(=O)c2ccc(F)cc2F)cs1 : cytotoxicity at 70.5 h was 0.492

Short answer for CN(Cc1ccc2c(c1)OCCO2)C(=O)NCCc1cnn(C)c1 : cytotoxicity at 70.5 h was 6.83

###

Known cytotoxicity at 70.5 h of a selection of molecules
# protocolNotes: Human HepG2 cell viability assay in 384 well format
# Format: toxicity, cell-based
# Parameters: dose 125 nL, time 70.5 hour; concentration not given beside the values
# runParameters: HepG2 cells, read-out: Inhibition
Expressed in %, but write only the number.

Illustrative cases are given below, each with its answer.
# molecule, cytotoxicity at 70.5 h, %
data = [
    ("Cn1cc(CN2CCCn3cnc(COCC4CC4)c3C2)cn1", -12.6),
    ("CCC(C)N(Cc1cccnc1)Cc1ccc2c(c1)OCCO2 (stereo unspecified)", 3.73),
    ("c1cnc(N2CCC3(CCN(CC4CCCC4)CC3)C2)nc1", -1.07),
    ("Cc1ccsc1CN(CCN(C)C)C(=O)c1cc2ccccc2[nH]1", 4.92),
    ("CCN(CC)C(=O)c1ccc(Cl)c(NC(=O)c2csnn2)c1", -10.1),
]

Now look at this entry.
Short answer for CC(C)(C)C(=O)N1CCC2(CC1)CC(Oc1ccccc1)CO2 (stereo unspecified) : cytotoxicity at 70.5 h was 11.5

###

# protocolNotes: Human HepG2 cell viability assay in 384 well format
# Assay type: toxicity, cell-based
# Parameters: dose 125 nL, time 70.5 hour; concentration not given beside the values
# runParameters: HepG2 cells, read-out: Inhibition
attributeMeasured: cytotoxicity at 70.5 h (%)
Expressed in %, but write only the number.

# compound, cytotoxicity at 70.5 h, %
records = [
    ("O=C(CN1C=Nc2ccccc2S1(=O)=O)NCc1ccccc1F", -9.4),
    ("CC(=O)N1CCCc2sc(C(=O)Nc3ccc(C)nc3)nc21", -1.24),
    ("CCC(CC)N(C)S(=O)(=O)c1ccc(CCNC(C)=O)s1", 1.4),
    ("Cc1cnc(N2C[C@@H]3[C@@H](C2)OCC(=O)N3C)nc1", -8.76),
    ("COc1ccc(OC)c(C2CCN(C3CCN(C(C)=O)CC3)C2)c1 (centres undefined)", 2.82),
    ("COCC(=O)N1CCN(Cn2nc(C)c(Br)c2C)CC1", -2.69),
    ("O=S(=O)(Cc1c(F)cccc1F)NCCOc1cccnc1", 17.9),
    ("c1csc(CN2CCCn3cnc(CN4CCCC4)c3C2)c1", -2.7),
    ("CCc1cc(C(=O)N2CCCC(c3[nH]ncc3S(C)(=O)=O)C2)no1 (centres undefined)", -7.59),
    ("O=C(C1CCOCC1)N1CCC2(CCNCC2)C1", -11.8),
]

Short answer for Cc1nn(C)c(C)c1C1CCCN1c1ncnc2c1CCC2 (centres undefined) : cytotoxicity at 70.5 h was 1.18

Short answer for CC1(C)CN(Cc2c[nH]c(CC3CCCC3)n2)CC[C@]1(C)O : cytotoxicity at 70.5 h was -5.46

Short answer for CCCOC1CCCN(C(=O)c2cc(CN(CC)CC)c(CC)o2)C1 (centres undefined) : cytotoxicity at 70.5 h was 17.7

Short answer for Cc1ccc(C)c(Oc2ccc(CNC(=O)C3CNC(=O)N3)cn2)c1 (centres undefined) : cytotoxicity at 70.5 h was -1.21

Short answer for Cc1c(C(C)NC(=O)Nc2ccc(F)c(F)c2)cnn1C (centres undefined) : cytotoxicity at 70.5 h was -3.96

Short answer for O=c1[nH]c2nc(N3CCOCC3)ncc2c(=O)n1-c1cccc(F)c1 : cytotoxicity at 70.5 h was -2.92

Short answer for CC(C)C(=O)NCc1ccc(N(C)C)cc1 : cytotoxicity at 70.5 h was -4.78

Short answer for Fc1ccc(CN2CCC3(CC2)CC(c2cccnc2)CO3)cc1 (centres undefined) : cytotoxicity at 70.5 h was -0.689

Short answer for Cn1c(CN2CCCc3cc(F)cc(F)c32)cc(=O)n(C)c1=O : cytotoxicity at 70.5 h was -4.68

Short answer for O=C(NCCc1nc(-c2cccnc2)no1)c1ccc(C2CCCO2)s1 (centres undefined) : cytotoxicity at 70.5 h was 6.34
